SYSTEM NAME: Cytochrome P450 2C9 (Homo sapiens)
EXPERIMENT SUMMARY: Cytochrome panel assay with activity outcomes
STATED CONDITIONS: recombinant CYP, pro-luciferin dealkylation, luminescence, p450-cyp2c9; series mostly up to 57.1 µM
Screen size: about 16,000 compounds; about 4,000 (25%) were called active. Not shown: some 26% with an inconclusive outcome. A selection follows.
READOUT LABEL: AC50

Worked set:
q: Kindly state the measured AC50 obtained for `O=c1oc(Cl)c(Cl)c2ccccc12` with Cytochrome P450 2C9 (Homo sapiens).
a: 15.8 µM (active)

q: Similarly, `O=C(O)C1=CCCN(CCOC(c2ccc(C(F)(F)F)cc2)c2ccc(C(F)(F)F)cc2)C1` ?
a: 2.51 µM (active)

q: Similarly, `CN(C)C=C1C(=O)N(C2CCCCC2)C(=O)N(C2CCCCC2)C1=O` ?
a: 2.24 µM (active)

q: Similarly, `Cc1cccc([C@H](C)c2cnc[nH]2)c1C` ?
a: 0.2 µM (active)

q: Similarly, `C=Cn1ccnc1P(=S)(c1nccn1C=C)C1CCCCC1` ?
a: 11.2 µM (active)

q: Similarly, `COCCCN1CCN(c2nnc3n2-c2sc(Br)cc2C(c2ccccc2Cl)=NC3)CC1` ?
a: 12.6 µM (active)

q: Similarly, O=C1NC(=O)N(CCNc2ncc(C(F)(F)F)cc2Cl)C(=O)C1/C=N/OCc1c(F)cccc1Cl (stereo unspecified) ?
a: 0.794 µM (active)

q: Similarly, `CC(C)c1ccc2c(c1)c(SC(C)(C)C)c(CC(C)(C)C(=O)O)n2Cc1ccc(Cl)cc1` ?
a: 6.31 µM (active)

New cases:
q: Kindly state the measured AC50 obtained for CCCc1cc2c(n1CCO)C(C)C1CN(C(=O)c3ccccc3)C(C)(C(=O)OC)C21 (stereo unspecified) with Cytochrome P450 2C9 (Homo sapiens).
a: 12.6 µM (active)

q: Similarly, CCCc1cc2c(n1Cc1cccc(Cl)c1)C(C)C1CN(C(=O)c3ccccc3)C(C)(C(=O)OC)C21 (stereo unspecified) ?
a: 5.01 µM (active)

q: Similarly, `Oc1ccc2c3c1O[C@H]1c4[nH]c5ccccc5c4C[C@]4(O)[C@H](C2)N(CC2CC2)CC[C@@]314` ?
a: 25.1 µM (active)

q: Similarly, `O=C(O)c1ccccc1-c1c2cc(Br)c(=O)cc-2oc2[c]([Hg])c(O)c(Br)cc12` ?
a: 0.631 µM (active)

q: Similarly, `COC(=O)[C@@]1(Cc2ccc(F)cc2)[C@H]2c3cc(C(=O)N(C)C)[nH]c3C[C@H]2CN1C(=O)c1ccccc1` ?
a: 10 µM (active)

----------
SYSTEM NAME: Cytochrome P450 2C9 (Homo sapiens)
EXPERIMENT SUMMARY: Cytochrome panel assay with activity outcomes; as to activity, negative = inhibition: % is scaled to controls: 0 for no effect and ±100 for the full control effect
STATED CONDITIONS: recombinant CYP, pro-luciferin dealkylation, luminescence, p450-cyp2c9; series mostly up to 57.1 µM
Out of some 16,000 compounds screened, about 4,000 (25%) were called active. About 26% were inconclusive and are not listed. A selection follows.
READOUT LABEL: activity, negative = inhibition

q: Which activity, negative = inhibition reading was recorded for the molecule `N#C/C(=C\c1ccc(O)c(O)c1)C(N)=S` ?
a: inactive

q: Similarly, `CN1CCN(c2ncc3ncc(=O)n(C)c3n2)CC1` ?
a: inactive

q: Similarly, `CCNC(=O)[C@@H]1O[C@@H](n2cnc3c(N)ncnc32)[C@@H](O)[C@H]1O` ?
a: inactive

q: Similarly, `CN1CC[C@@]23c4ccccc4N[C@H]1[C@]21CCN(C)[C@@H]3Nc2ccccc21` ?
a: inactive

q: Similarly, `c1ccc2cc(CC3=NCCN3)ccc2c1` ?
a: inactive

q: Similarly, `c1ccc2c([C@@H]3CCN(CCN4CCOCC4)C3)c[nH]c2c1` ?
a: -7.99% [at 11.4 µM] (inactive)

q: Similarly, `O=C(Oc1ccccc1)N1CCC2(CCN(Cc3nccs3)CC2)CC1` ?
a: inactive

q: Similarly, `CC1=C2C(=O)[C@@H]3[C@@H](CC=C4C[C@@H](O)CC[C@@]43C)[C@H]2CC[C@@]12O[C@H]1C[C@H](C)CN[C@H]1[C@@H]2C` ?
a: -3.17% [at 11.4 µM] (inactive)

q: Similarly, c1cc(C2N3CCCN2CC3)ccn1 (stereo unspecified) ?
a: 9.12% [at 11.4 µM] (inactive)

q: Similarly, `O=C(O)/C=C(\CC(=O)O)C(=O)O` ?
a: -16.9% [at 11.4 µM] (inactive)

New cases:
q: Which activity, negative = inhibition reading was recorded for the molecule `CN1CCc2cc(O)cc3c2[C@H]1Cc1ccc(O)c(O)c1-3` ?
a: inactive

----------
SYSTEM NAME: Cytochrome P450 2C9 (Homo sapiens) (UniProt P11712)
Sequence (P11712 whole entry, looked up): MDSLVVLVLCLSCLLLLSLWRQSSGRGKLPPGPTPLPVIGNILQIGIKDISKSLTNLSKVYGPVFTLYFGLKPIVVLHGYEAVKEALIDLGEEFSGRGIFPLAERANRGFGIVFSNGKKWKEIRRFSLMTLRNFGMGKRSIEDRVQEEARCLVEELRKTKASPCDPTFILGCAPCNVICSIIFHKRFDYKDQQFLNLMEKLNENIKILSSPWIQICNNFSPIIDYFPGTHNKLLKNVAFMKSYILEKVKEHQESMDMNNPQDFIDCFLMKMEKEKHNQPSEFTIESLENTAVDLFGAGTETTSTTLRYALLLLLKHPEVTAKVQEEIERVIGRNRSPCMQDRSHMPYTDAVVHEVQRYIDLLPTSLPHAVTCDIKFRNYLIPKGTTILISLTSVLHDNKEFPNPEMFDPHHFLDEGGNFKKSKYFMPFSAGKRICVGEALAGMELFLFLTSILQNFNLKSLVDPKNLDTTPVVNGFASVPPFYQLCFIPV
EXPERIMENT SUMMARY: Cytochrome panel assay with activity outcomes; as to activity, negative = inhibition: % is scaled to controls: 0 for no effect and ±100 for the full control effect
STATED CONDITIONS: recombinant CYP, pro-luciferin dealkylation, luminescence, p450-cyp2c9; series mostly up to 57.1 µM
Screen size: about 16,000 compounds; about 4,000 (25%) were called active. Not shown: some 26% with an inconclusive outcome. These entries were drawn from the full list.
READOUT LABEL: activity, negative = inhibition

Worked set:
q: Which activity, negative = inhibition reading was recorded for the molecule `CCc1ccc(CCN2CCCCC2)nc1` ?
a: -14.9% [at 11.4 µM] (inactive)

q: Similarly, `C=CCN1C(=O)NC(=O)/C(=C/c2cccn2C)C1=O` ?
a: inactive

q: Similarly, `CNC[C@H](O)c1ccc(O)cc1` ?
a: inactive

q: Similarly, `C[C@@H]1O[C@H](O[C@@H]2CC[C@@]3(C=O)[C@H]4CC[C@@]5(C)[C@@H](C6=CC(=O)OC6)CC[C@@]5(O)[C@@H]4CC[C@]3(O)C2)C[C@H](O)[C@@H]1O` ?
a: inactive

q: Similarly, `CCn1cnc2c(Nc3cccc(Cl)c3)nc(N[C@@H]3CCCC[C@H]3N)nc21` ?
a: inactive

New cases:
q: Which activity, negative = inhibition reading was recorded for the molecule `N[C@@H](Cn1oc(=O)[nH]c1=O)C(=O)O` ?
a: inactive

q: Similarly, `O=C(CCCN1CCC(n2c(=O)[nH]c3ccccc32)CC1)c1ccc(F)cc1` ?
a: inactive

----------
Entries and their AC50 values follow.
SYSTEM NAME: Cytochrome P450 2C9 (Homo sapiens) (UniProt P11712)
EXPERIMENT SUMMARY: Cytochrome panel assay with activity outcomes
STATED CONDITIONS: recombinant CYP, pro-luciferin dealkylation, luminescence, p450-cyp2c9; series mostly up to 57.1 µM
The campaign covered roughly 16,000 compounds. About 4,000 (25%) were called active. Inconclusive results (about 26%) are left out. A selection follows.

q: Which AC50 reading was recorded for the molecule `CC(C)n1cnc2c(C(=O)N[C@H]3CN4CCC3CC4)cc(Cl)cc21` ?
a: 0.398 µM (active)

q: Similarly, `CN1C(=O)C(=Cc2ccc(N3CCCCCC3)o2)C(=O)N(C)C1=S` ?
a: 7.94 µM (active)

q: Similarly, `CCOC(=O)c1[nH]c(C)c(C(=O)N2CCC3(CC2)OCCO3)c1C` ?
a: 20 µM (active)

----------
SYSTEM NAME: Cytochrome P450 2C9 (Homo sapiens) (UniProt P11712)
EXPERIMENT SUMMARY: Cytochrome panel assay with activity outcomes; as to activity, negative = inhibition: % is scaled to controls: 0 for no effect and ±100 for the full control effect
STATED CONDITIONS: recombinant CYP, pro-luciferin dealkylation, luminescence, p450-cyp2c9; series mostly up to 57.1 µM
Among all 16,000 compounds or so, about 4,000 (25%) were called active. Not shown: some 26% with an inconclusive outcome. The list is a sample of the results.
READOUT LABEL: activity, negative = inhibition

q: Which activity, negative = inhibition reading was recorded for the compound `CC(C)(C)NC[C@H](O)c1ccccc1Cl` ?
a: inactive

q: Similarly, `CC[N+](C)(C)c1cccc(O)c1` ?
a: inactive

q: Similarly, `O=C1/C(=C\c2ccccc2)C[C@@]2(O)[C@H]3Cc4ccc(O)c5c4[C@@]2(CCN3CC2CC2)[C@@H]1O5` ?
a: inactive

q: Similarly, `CCc1cc2c(nc1CC)CCN(CC/C(C)=N/OC)C2` ?
a: 7.8% [at 11.4 µM] (inactive)

q: Similarly, `CN1CCC(c2c[nH]c3ccc(O)cc23)CC1` ?
a: inactive

q: Similarly, `CCCN1CCC[C@H](c2cccc(O)c2)C1` ?
a: inactive

New cases:
q: Which activity, negative = inhibition reading was recorded for the compound `CC(=O)N1CCC2(CC1)CC(=O)c1cc(OCC(=O)N3CCN(C)CC3)ccc1O2` ?
a: inactive

q: Similarly, `N[C@H](CCl)C(=O)O` ?
a: inactive

q: Similarly, OC(c1ccccc1)(c1ccccc1)C1CCCN1 (stereo unspecified) ?
a: inactive

q: Similarly, `C[C@@]12CC[C@@H]3[C@H](CCC4=CC(=O)CC[C@]43C)[C@@H]1CC[C@@H]2C(=O)Cn1cnc2c(=S)nc[nH]c21` ?
a: -11.6% [at 11.4 µM] (inactive)

q: Similarly, `Cc1o[nH]c(=O)c1C[C@@H](N)C(=O)O` ?
a: inactive
